- assayed-system: T1, human GREM1 (hGREM1-His; SEQ ID NO: 595) (human, UniProt O60565 25-184)
- T1 construct: also called biotin-hGREM1-His; recombinant human GREM1 protein
- T1 sequence: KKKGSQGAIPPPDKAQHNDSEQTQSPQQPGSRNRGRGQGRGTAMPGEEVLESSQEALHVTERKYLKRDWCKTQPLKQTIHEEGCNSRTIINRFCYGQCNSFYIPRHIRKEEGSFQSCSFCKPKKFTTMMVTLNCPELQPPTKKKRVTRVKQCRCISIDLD
- assay-notes: SPR, Biacore T200, 25 C, mAb captured, hGREM1-His injected;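 also: Heparin-supplemented HBS-EP+ used as running buffer, association and dissociation phases followed, Kd computed as koff divided by kon and half-life derived from koff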
Documented t1/2 across a set of binders
parameter-measured: t1/2 (h)

{"binder": "H2bM2782N (antibody, mouse IgG2, V domains shown, H2M prefix = mouse IgG2 Fc (here H2bM); also called H2M2782N) VH: EVQLVESGGGLVQPGGSLRLSCAASGFTFSSYSMNWVRQAPGKGLEWVSSISSSSNYINYADSIKGRFTISRDNAKNSLYLQMNSLRAEDTAVYYCARVNWDYPFDCWGRGTLVTVSS VL: DIQMTQSPSSLSASVGDRVTITCRASQDIRHYLVWYQQKPGKVPKLLIYAASTLQSGVPSRFSGSGSGTDFILTISSLQPEDVATYYCQKYNSAPFTFGPGTKVDIK", "parameter-measured": "t1/2", "unit-abbrev": "h", "reported": 0.102}
{"binder": "H4H2895N (antibody, human IgG4, V domains shown, H4H prefix = human IgG4 Fc) VH: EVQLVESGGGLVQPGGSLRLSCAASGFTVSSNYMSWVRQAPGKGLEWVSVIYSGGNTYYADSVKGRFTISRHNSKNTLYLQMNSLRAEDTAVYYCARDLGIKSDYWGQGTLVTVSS VL: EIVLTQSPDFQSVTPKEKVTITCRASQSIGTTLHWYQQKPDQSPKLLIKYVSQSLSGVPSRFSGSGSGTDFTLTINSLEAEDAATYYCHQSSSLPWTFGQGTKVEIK", "parameter-measured": "t1/2", "unit-abbrev": "h", "reported": 1.47}
{"binder": "H4H6260P (antibody, human IgG4, V domains shown, H4H prefix = human IgG4 Fc) VH: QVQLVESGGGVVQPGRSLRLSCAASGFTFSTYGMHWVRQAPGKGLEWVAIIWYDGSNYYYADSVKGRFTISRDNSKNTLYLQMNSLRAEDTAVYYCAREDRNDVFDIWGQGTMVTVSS VL: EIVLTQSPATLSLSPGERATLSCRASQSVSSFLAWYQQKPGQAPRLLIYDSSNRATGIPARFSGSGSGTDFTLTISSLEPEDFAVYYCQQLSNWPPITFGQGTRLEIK", "parameter-measured": "t1/2", "unit-abbrev": "h", "reported": 2.95}
